target system: Protein RecA (Mycobacterium tuberculosis)
measurement protocol: M. tuberculosis H37Rv growth inhibition, dose response, strain H37Rv (AID 489010);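 further: whole Mycobacterium tuberculosis cells grown in culture and not purified RecA protein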
Type: functional
These assays gave more results; the selection is not random.
Hi there, I'd appreciate the recorded IC90 for every entry that follows.

Sample answers from the record:
- compound: "Fc1ccc(Oc2nc(-c3ccccc3)nnc2C(F)(F)F)cc1"
  result: "> 100 µM (active)"
- compound: "COC(=O)c1sc(-c2ccc(C(C)(C)C)cc2)cc1NC(=O)/C=C/C(=O)O"
  result: "42.7 µM (active)"

Look at each compound and report its IC90.
1. Cc1ccc(Sc2ccc(NC(=O)CCl)cc2)c(C)c1
2. O=C(CCl)Nc1cn(-c2ccccc2)nc1-c1ccc(F)cc1
3. COc1cc2c(cc1OC)-c1c(OC)c(OC)cc3c1C(C2)N(C)CC3 (stereo unspecified)
4. O=C(CCl)N1c2ccccc2OCC1c1ccccc1 (stereo unspecified)
5. Cc1nc2c(=O)n(C)c(=O)nc-2n(C)n1

Result:
66.3 µM (active)
49.8 µM (active)
40.2 µM (active)
4.03 µM (active)
4.19 µM (active)

I need IC90 for every entry listed below, if you could help.
1. COc1ccc(C(=O)c2c(C(F)(F)F)oc3c2C(=O)c2ccccc2C3=O)cc1OC
2. O=C(OCn1ncc(Cl)c(Cl)c1=O)c1cccc(C(F)(F)F)c1
3. Cn1nc(-c2ccccn2)nc2c(=O)n(C)c(=O)nc1-2
4. CC(C)(C)c1csc(Sc2ccc([N+](=O)[O-])cn2)n1

Result:
1: 13.8 µM (active); 2: > 100 µM (active); 3: 22.3 µM (active); 4: > 100 µM (active)

###

target system: Protein RecA (Mycobacterium tuberculosis) (UniProt P9WHJ3)
Sequence (P9WHJ3 1-252, added parts left off): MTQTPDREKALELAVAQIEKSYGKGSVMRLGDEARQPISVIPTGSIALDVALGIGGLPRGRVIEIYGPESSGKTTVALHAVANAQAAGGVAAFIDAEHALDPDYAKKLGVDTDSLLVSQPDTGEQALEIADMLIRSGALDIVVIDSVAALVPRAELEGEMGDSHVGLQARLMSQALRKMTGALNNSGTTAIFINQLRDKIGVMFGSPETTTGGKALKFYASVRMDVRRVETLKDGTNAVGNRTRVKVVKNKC
measurement protocol: M. tuberculosis H37Rv growth inhibition, dose response, strain H37Rv (AID 489010);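 further: whole Mycobacterium tuberculosis cells grown in culture and not purified RecA protein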
Format: functional
Only a part of the results of these assays is listed, not drawn at random.
Task for the reader: assign each of the following molecules its reported IC90.

Known results for molecules:
- molecule: "CSc1nnc(NC(=O)c2nc(S(=O)(=O)Cc3ccccc3F)ncc2Cl)s1"
  result: "> 100 µM (active)"
- molecule: "Cc1oc2c(c1C(=O)N1CCOCC1)C(=O)c1ccccc1C2=O"
  result: "35.2 µM (active)"
- molecule: "Cc1cc(Br)c2c(c1)/C(=C/C(=O)c1cccs1)C(=O)N2"
  result: "> 100 µM (active)"
- molecule: "O=C(OCn1ncc(Cl)c(Cl)c1=O)c1ccccc1Cl"
  result: "> 100 µM (active)"

Return reported IC90 values for all items listed beneath this line.
1. COc1cc2c(cc1OC)C(c1cc(Br)ccc1F)N(C(=O)CCl)CC2 (centres undefined)
2. Cc1ccc(N(C(=O)CCl)C(C(=O)NC2CCCCC2)c2cccnc2)cc1C (centres undefined)
3. Cc1ccc(C(=O)Oc2ccc([N+](=O)[O-])cc2)cc1S(=O)(=O)N1CCCCCC1
4. O=C1NC(=S)N(C2CCCCC2)C(=O)/C1=C/NNC(=O)c1ccccc1O
5. CC(=O)n1cc(N(C(=O)CCl)c2ccc(C)cc2)c2ccccc21

Result:
12.1 µM (active)
30.1 µM (active)
> 100 µM (active)
> 100 µM (active)
5.03 µM (active)

Please state IC90 for every molecule in the list that follows.
1. Cn1nc(-c2ccc(Cl)cc2)nc2c(=O)n(C)c(=O)nc1-2
2. CC1=NNC(=O)C1Cc1c(Cl)cccc1Cl (centres undefined)
3. COc1cccc(N(C(=O)CCl)C(C(=O)NCCc2ccccc2)c2cccs2)c1 (centres undefined)
4. Cc1nn(-c2ccccc2)c(Cl)c1CN(C(=O)CCl)c1cccc2ccccc12
5. Cc1ccc(C)c(Sc2ccc(NC(=O)CCl)cc2)c1
6. O=C(CCl)N(c1ccc(Cl)cc1)c1c[nH]c2ccccc12
7. Cc1cc(C)cc(Cn2ncc(Cl)c(Cl)c2=O)c1
8. CN(C1=C(NC(=O)c2ccccc2)C(=O)c2ccccc2C1=O)C1CCS(=O)(=O)C1 (centres undefined)

Result:
["20 µM (active)", "> 100 µM (active)", "32 µM (active)", "35.5 µM (active)", "> 100 µM (active)", "4.5 µM (active)", "25.7 µM (active)", "> 100 µM (active)"]

// each listed molecule needs a value for IC90
1. Cc1ccc(C(=O)OCn2ncc(Cl)c(Cl)c2=O)cc1
2. Cc1ccc(-n2nnc3c(SCC(=O)NCC4CCCO4)ncnc32)cc1 (centres undefined)

Result:
["> 100 µM (active)", "> 100 µM (active)"]

###

target system: Protein RecA (Mycobacterium tuberculosis) (UniProt P9WHJ3)
measurement protocol: M. tuberculosis H37Rv growth inhibition, dose response, strain H37Rv (AID 489010);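 further: whole Mycobacterium tuberculosis cells grown in culture and not purified RecA protein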
Format: functional
Only a part of the results of these assays is listed, not drawn at random.
Kindly supply the reported IC90 values for the records listed here.

For orientation, consider the following solved cases.
- molecule: "CCCCCCCCCCn1c2c(c(=N)c3c1CCC3)CCC2"
  target system: "Protein RecA (Mycobacterium tuberculosis) (UniProt P9WHJ3)"
  reported metric: "IC90"
  result: "3.39 µM (active)"
- molecule: "O=C(Cc1ccccc1)c1c[nH]c(C(=O)C(Cl)(Cl)Cl)c1"
  target system: "Protein RecA (Mycobacterium tuberculosis) (UniProt P9WHJ3)"
  reported metric: "IC90"
  result: "> 100 µM (active)"
- molecule: "CC(NC(=O)COC(=O)c1cc(NS(=O)(=O)c2ccc(Cl)c([N+](=O)[O-])c2)ccc1O)C1CC2CCC1C2 (stereo not given)"
  target system: "Protein RecA (Mycobacterium tuberculosis) (UniProt P9WHJ3)"
  reported metric: "IC90"
  result: "> 100 µM (active)"
- molecule: "Cc1[nH]n(-c2ccccc2)c(=O)c1C(c1cccc([N+](=O)[O-])c1)c1c(C)[nH]n(-c2ccccc2)c1=O"
  target system: "Protein RecA (Mycobacterium tuberculosis) (UniProt P9WHJ3)"
  reported metric: "IC90"
  result: "> 100 µM (active)"
- molecule: "Cc1ccc2c(c1)c1c3n2CCN(C(=O)CCl)C3CCC1 (stereo not given)"
  target system: "Protein RecA (Mycobacterium tuberculosis) (UniProt P9WHJ3)"
  reported metric: "IC90"
  result: "8.43 µM (active)"

Each molecule below has a reported value. Please supply its IC90.
1. O=C(NC(N=C(S)Nc1ccc(Cl)cc1Cl)C(Cl)(Cl)Cl)c1cccc([N+](=O)[O-])c1 (stereo not given)
2. CCn1nc(/C=C/c2ccccc2)nc2c(=O)n(C)c(=O)nc1-2
3. C=CCOc1ccccc1CN(C(=O)CCl)c1ccc2c(c1)OCO2
4. COC(=O)c1c(C)oc2ccc(N(C(=O)c3ccncc3)S(=O)(=O)c3ccc4ccccc4c3)cc12

Result:
["15.2 µM (active)", "15.4 µM (active)", "8.42 µM (active)", "> 100 µM (active)"]

Ask: Fill in: IC90 of Cc1cccc(Cn2nnc3c2C(=O)c2ccccc2C3=O)c1 is ___
Result: 52.6 µM (active)
